System: mice
Method Summary: modified phenyl-p-quinone writhing assay in mice (analgesia)
Assay type: in vivo
Conditions: Mus musculus, sc; male CD-1 mice; test compound s.c. at peak time before phenyl-p-quinone; calculated ED50 by linear regression; read-out: Analgesic Activity (Inhibition of Writhing ED5Ø (mg/kg, s.c.)) (converted)
Endpoint Name: ED50 (mg/kg)
State the answer as a number, implicitly in mg/kg.

Examples with their reported ED50 follow.
# Compound, ED50 (mg/kg)
data = [
    ("CC1C2Cc3cc4cc[nH]c4cc3C1(C)CCN2C (stereo not shown)", 29.5),
    ("CC1C2Cc3ccc4[nH]ccc4c3C1(C)CCN2C (stereo not shown)", 0.6),
    ("CC1C2Cc3cc4[nH]ccc4cc3C1(C)CCN2C (stereo not shown)", 1.8),
]

[in] Give the measured ED50 of CC1C2Cc3c(ccc4[nH]ccc34)C1(C)CCN2C (stereo not shown) .
[out] 30.4

[in] Give the measured ED50 of CC1C2Cc3c(ccc4c3C(=O)C(=O)N4)C1(C)CCN2C (stereo not shown) .
[out] 24.3

[in] Give the measured ED50 of CC1C2Cc3cc4c(cc3C1(C)CCN2C)NCC4 (stereo not shown) .
[out] 35.5

[in] Give the measured ED50 of CC(C)=CCN1CCC2(C)c3cc(O)ccc3CC1C2C (stereo not shown) [pentazocine, reference compound] .
[out] 1.3
